System: myeloid leukemia patient primary cells Pat.6
ASSAY_COMMENT: cell viability (% survival relative to DMSO control); higher = less cytotoxic
TEST_PARAMETERS: 10 nM; 72 h
The following molecules are listed with their measured cell viability values.
Write the answer as a number in %, unit excluded.

Nc1ccn([C@@H]2O[C@H](CO)[C@@H](O)C2(F)F)c(=O)n1 : 84
c1ccc2c(c1)SCc1c-2[nH]c2ccccc12 : 82.9
Fc1ccc(CNc2ncnc3ccc(F)cc23)cc1 : 86.8
O=C(Cc1cccc(OC(F)(F)F)c1)Nc1ccc(CCCCc2nnc(NC(=O)Cc3ccccn3)s2)nn1 : 94.9
NS(=O)(=O)c1ccc(S(=O)(=O)Nc2cccc3c(Cl)c[nH]c23)cc1 : 98.2
O=C(c1c2ccccc2cc2ccccc12)N1CCC(N2CCC[C@@H](C(=O)N3CCOCC3)C2)CC1 : 96.8

-- ask # get_value(readout='cell viability', item= "O=C(/C=C/c1cccnc1)NCCCCC1CCN(C(=O)c2ccccc2)CC1" )
-- reply 51.7

----------
System: LAMA-84
ASSAY_COMMENT: cell viability (% survival relative to DMSO control, bortezomib = 0%); higher = less cytotoxic
TEST_PARAMETERS: 10 nM; 72 h
Item-by-item account of cell viability
# value in %; strip the unit string

Solved cases below.
CCC(CC#N)OC(=O)N[C@@H](C)c1cccc(NC(=O)Nc2ccc(-c3cnco3)c(OC)c2)c1 (stereo in doubt) : 102
NS(=O)(=O)c1ccc(NC(=O)Cc2ccccc2)cc1 [4-(2-Phenylacetamido)Benzenesulfonamide] : 104
Clc1cc(Cl)c(OCC#CI)cc1Cl : 94.6
CN1CC(=O)N2[C@H](c3ccc4c(c3)OCO4)c3[nH]c4ccccc4c3C[C@@H]2C1=O : 97.9
CC(C)c1ccc2c(c1)c(SC(C)(C)C)c(CC(C)(C)C(=O)O)n2Cc1ccc(Cl)cc1 : 101
CCCC(CCC)C(=O)O : 91.7
Oc1ncc(F)c(O)n1 : 98.5
CN(C)CCNC(=O)c1cccn2c(=O)c3cc4ccccc4cc3nc12 : 107

-- ask Item under review: "c1ccc2nc(-c3nnc4sc(-c5cnccn5)nn34)ccc2c1" . Reported cell viability?
-- reply 104

----------
System: myeloid leukemia patient primary cells Pat.3
ASSAY_COMMENT: area under dose-response curve (viability, 1 nM-10 uM) (fraction (0-1)); higher = more sensitive
TEST_PARAMETERS: 72 h
ASSAY_METRIC: area under dose-response curve
Please respond with just the number, no unit label.

Before answering, review these 6 worked examples.
Nc1nc(O)c2c(CCc3ccc(C(=O)N[C@@H](CCC(=O)O)C(=O)O)cc3)c[nH]c2n1 [Pemetrexed] : 0.196
CC(C)c1onc(-c2c(Cl)cccc2Cl)c1COc1ccc(/C=C/c2cccc(C(=O)O)c2)c(Cl)c1 [GW 4064] : 0.323
NS(=O)(=O)c1ccc(S(=O)(=O)Nc2cccc3c(Cl)c[nH]c23)cc1 [Indisulam] : 0.137
CCC(CC#N)OC(=O)N[C@@H](C)c1cccc(NC(=O)Nc2ccc(-c3cnco3)c(OC)c2)c1 (stereo in doubt) [AVN-944] : 0.44
Oc1ncc(F)c(O)n1 [5-fluorouracil] : 0.0441
Clc1cc(Cl)c(OCC#CI)cc1Cl [Haloprogin] : 0.388

Then there is this compound:
-- ask Entry O=C(/C=C/c1cccnc1)NCCCCC1CCN(C(=O)c2ccccc2)CC1 [Daporinad] : reported area under dose-response curve = ?
-- reply 0.995
